Target: T1, VEGFR-1-Fc (human, UniProt P17948 27-331)
T1 construct: domain: first three Ig domains; expressed in Drosophila S2 cells, purified on Protein A sepharose; also called VEGFR-1-Fc fusion protein; not shown: Fc fragment from the Signal-pIgPlus vector
T1 sequence (P17948 27-331): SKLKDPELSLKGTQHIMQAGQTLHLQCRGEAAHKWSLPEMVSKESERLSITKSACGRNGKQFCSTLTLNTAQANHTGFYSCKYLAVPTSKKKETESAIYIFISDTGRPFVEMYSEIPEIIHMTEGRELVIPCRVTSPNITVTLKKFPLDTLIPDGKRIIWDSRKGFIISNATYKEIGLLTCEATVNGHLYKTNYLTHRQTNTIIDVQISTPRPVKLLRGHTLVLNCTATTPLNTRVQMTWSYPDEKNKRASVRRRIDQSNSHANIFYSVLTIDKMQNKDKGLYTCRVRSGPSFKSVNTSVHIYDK
Test: receptor-Fc IP
value.type: binding result

Can you share its binding result? I mean this binder: 22-1 (ligand) AHYNTEILKSIDNEWRKTQCMPREVCIDVGKEFGVATNTFFKPPCVSVYRCGGCCNDEGLECVPTEESNITMQIMRIKPHQGQHIGEMSFLQHNKCECRPKKD
no binding

And 12-15 (ligand) GQNHHEVVKFMDVYQRSYCHPIETLVDIFQEFGVATNTFFKPPCVSVYRCGGCCNSEGLQCVPTEESNITMQIMRITVPLSQGPKPVTISFANHTSCRCMSKLD ?
no binding
